- target-system: human MCHR1 (Homo sapiens, UniProt Q99705)
- Construct: expressed in transfected cells; host or cells: CHO cell clone 57 (described in WO01/82925); membrane fraction
- Sequence (Q99705 whole entry): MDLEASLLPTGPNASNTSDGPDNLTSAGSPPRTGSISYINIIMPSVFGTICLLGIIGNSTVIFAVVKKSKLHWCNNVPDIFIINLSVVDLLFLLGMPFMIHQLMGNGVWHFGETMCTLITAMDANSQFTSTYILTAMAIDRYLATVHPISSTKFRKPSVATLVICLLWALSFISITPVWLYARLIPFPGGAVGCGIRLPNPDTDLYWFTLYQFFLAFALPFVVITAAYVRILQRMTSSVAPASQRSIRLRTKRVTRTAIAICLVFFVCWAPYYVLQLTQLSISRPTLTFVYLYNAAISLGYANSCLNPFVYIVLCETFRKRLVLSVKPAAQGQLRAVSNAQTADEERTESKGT
- procedure-text: Human MCH receptor 1 (MCHR1) binding inhibitory activity, binding assay with [125I]-MCH(4-19)
- condition-info: test compound 0.1 μM, human MCHR1-expressing CHO cell membrane fraction, read-out: Binding inhibition rate % (0.1 μM)
measurement-label: inhibition at 0.1 µM (%)
Give the value, in units of %, as a plain number.

Solved entries:
smiles-representation	inhibition at 0.1 µM [%]
COc1cc(-n2ccc3oc(-c4ccc(F)cc4)cc3c2=O)ccc1OCC1(C#N)CC1	83
COc1cc(-n2cnc3oc(-c4ccc(Cl)cc4)cc3c2=O)ccc1OCC1(C#N)CC1	82
COc1cc(-n2ccc3oc(-c4ccccc4)cc3c2=O)ccc1OCC1(C#N)CC1	58

Below: the item to evaluate.
Qu. Name the recorded inhibition at 0.1 µM of the compound listed here: COc1cc(-n2ccc3oc(-c4ccc(Cl)cc4)cc3c2=O)ccc1C(=O)NCC1CC1
Ans. 74
